Tested on: human blood bacterium (HBB)
Format: cell-based
Details: concentration not printed
value_kind: effect on HBB growth in culture

Study these solved cases before continuing.
[Ag] [silver] : stimulated
O=C(CO)[C@@H](O)[C@H](O)[C@H](O)CO [fructose] : support growth
OC[C@H]1O[C@@](CO)(O[C@H]2O[C@H](CO)[C@@H](O)[C@H](O)[C@H]2O)[C@@H](O)[C@@H]1O [sucrose] : support growth
[Cu] [copper] : stimulated
OC[C@H]1O[C@@H](O[C@H]2[C@H](O)[C@@H](O)C(O)O[C@@H]2CO)[C@H](O)[C@@H](O)[C@H]1O (stereo partly shown) [lactose] : support growth

Query :: Any idea what effect on HBB growth in culture was measured for OC[C@H]1O[C@H](OC[C@H]2O[C@H](O[C@]3(CO)O[C@H](CO)[C@@H](O)[C@@H]3O)[C@H](O)[C@@H](O)[C@@H]2O)[C@H](O)[C@@H](O)[C@H]1O [raffinose] ?
Result :: support growth

Query :: Quick one: OC[C@H]1O[C@H](OCC2O[C@@H](O)[C@H](O)[C@@H](O)[C@@H]2O)[C@H](O)[C@@H](O)[C@H]1O (stereo partly shown) [meilibose]
Result :: support growth

Query :: Quick one: [Sn] [tin]
Result :: stimulated
